- method_description: qHTS assay for small molecule agonists of the antioxidant response element (ARE) signaling pathway (AID 651741); for activation: % of control where 0% means no effect
- experimental_setup: HepG2 ARE-bla reporter, beta-lactamase FRET ratio, 16 h; series mostly up to 96 µM
Inconclusive results are not listed. Active and inactive are the calls of the source. Calls come from the whole dose curve; as a rule, active = well fitted activation curve with a large enough effect in the signal ratio; inconclusive = small, poorly fitted or top-dose-only effect, or effect the other way, or a change in a side signal; inactive = flat fitted curve, though single readings scatter; the % refers to the signal ratio.
Just give me one of these, please: true (1) for active, false (0) for inactive

Study these solved cases before continuing.
Recorded test outcome, item `NC(N)=NC(N)=NCCc1ccccc1`
true (1)

Recorded test outcome, item `Cc1ncc([N+](=O)[O-])n1CCO`
false (0)

Recorded test outcome, item `O=C(N[C@H](CO)[C@H](O)c1ccc([N+](=O)[O-])cc1)C(Cl)Cl`
false (0)

New cases:
Recorded test outcome, item `COc1ccc2cc3[n+](cc2c1OC)CCc1cc2c(cc1-3)OCO2`
true (1)

Recorded test outcome, item `NNC(=O)c1ccncc1`
false (0)

Recorded test outcome, item `CCc1cc(C(N)=S)ccn1`
false (0)

Recorded test outcome, item `Cc1noc(NS(=O)(=O)c2ccc(N)cc2)c1C`
false (0)
